System: U-251
assay-procedure: Growth inhibition of human U251 cells at 10^-5 M after 48 hrs by Sulforhodamine B assay relative to control
Type: functional
cond: U-251, 48 h, read-out: GI
property-measured: inhibition of growth at 10 µM (%)
Only the number, expressed in %, is required.

Hello, I am looking for reported inhibition of growth at 10 µM with U-251 for COc1ccc(N2CCN(c3nc(-c4ccncc4)nc4sc5c(c34)CCCCCC5)CC2)cc1 . Could you help?
15.8

What about c1ccc(N2CCN(c3nc(-c4ccncc4)nc4sc5c(c34)CCCCCC5)CC2)cc1 ?
0.24

For c1cc(-c2nc(N3CCOCC3)c3c4c(sc3n2)CCCCCC4)ccn1 then?
21.9

Next up: Clc1nc(-c2ccccn2)nc2sc3c(c12)CCCCCC3
2.82

Continue with Clc1nc(-c2ccncc2)nc2sc3c(c12)CCCCCC3
-0.32

Also need CN1CCN(c2nc(-c3ccccn3)nc3sc4c(c23)CCCCCC4)CC1 , thanks.
8.31

What would you report for NNc1nc(-c2ccncc2)nc2sc3c(c12)CCCCCC3 ?
6.15

Input c1ccc(N2CCN(c3nc(-c4ccccn4)nc4sc5c(c34)CCCCCC5)CC2)cc1
37.1

====

Tested on: SK-MEL-28
assay-procedure: Growth inhibition of human SK-MEL-28 cells after 48 hrs by Sulforhodamine B assay
Assay type: functional
cond: SK-MEL-28, 48 h
property-measured: GI50 (µM)
Enter your answer as a number in µM; do not include the unit.

I am curious: what GI50 value has been reported for NNc1nc(-c2ccccn2)nc2sc3c(c12)CCCCCC3 ?
14.8

Note, next up: O=c1[nH]c(-c2ccccn2)nc2sc3c(c12)CCCCCC3
6.03

// next record CN1CCN(c2nc(-c3ccncc3)nc3sc4c(c23)CCCCCC4)CC1
12.6

Try this compound next: c1ccc(-c2nc(N3CCOCC3)c3c4c(sc3n2)CCCCCC4)nc1
11

====

Test system: CCRF-CEM
assay-procedure: Growth inhibition of human CCRF-CEM cells after 48 hrs by Sulforhodamine B assay
Format: functional
Answer each item with its documented GI50.
Hi! Could you send only the number? It should be in µM, unit omitted.

What value of measured GI50 is listed for CN1CCN(c2nc(-c3ccncc3)nc3sc4c(c23)CCCCCC4)CC1 ?
8.13

Try the molecule O=c1[nH]c(-c2ccccn2)nc2sc3c(c12)CCCCCC3
0.912

Try this molecule too: NNc1nc(-c2ccccn2)nc2sc3c(c12)CCCCCC3
4.47

Again, but for COc1ccc(N2CCN(c3nc(-c4ccccn4)nc4sc5c(c34)CCCCCC5)CC2)cc1
4.37

Another molecule to look at: c1ccc(-c2nc(N3CCOCC3)c3c4c(sc3n2)CCCCCC4)nc1
3.55

====

Test system: IGROV-1
assay-procedure: Growth inhibition of human IGROV1 cells at 10^-5 M after 48 hrs by Sulforhodamine B assay relative to control
Assay type: functional
cond: IGROV-1, 48 h, read-out: GI
property-measured: inhibition of growth at 10 µM (%)
Value expressed in %; do not type the unit.

So what does the record say about inhibition of growth at 10 µM for CN1CCN(c2nc(-c3ccccn3)nc3sc4c(c23)CCCCCC4)CC1 ?
6.64

Similarly, Clc1nc(-c2ccncc2)nc2sc3c(c12)CCCCCC3 ?
7.04

Repeat for the following molecule: COc1ccc(N2CCN(c3nc(-c4ccncc4)nc4sc5c(c34)CCCCCC5)CC2)cc1
3.43

// next record c1cc(-c2nc(N3CCOCC3)c3c4c(sc3n2)CCCCCC4)ccn1
1.53

For NNc1nc(-c2ccncc2)nc2sc3c(c12)CCCCCC3 then?
-16.5

Please give the result for c1ccc(N2CCN(c3nc(-c4ccncc4)nc4sc5c(c34)CCCCCC5)CC2)cc1 too.
0.86
